- measured on: MD145 virus-like particle (GII.4, capsid protein VP1) (Norovirus GII.4 strain MD145-12)
- method: SPR (Biacore 1000), Fab on MD145 virus-like particle
readout type: Kd (nM)
One number for each entry, in nM.

Answered cases to consult:
anti-GII.4 NV Fab G3 (Fab, V domains shown) VH: EVQLEQSGGGLVKPGGSLRLSCAGSGFSFSAHTINWVRQAPGKGLEWVGFIRSQAQGGTREYAASVKGRIILSRDDSENSAYLQMNSLNTGDTAVYYCARDSSRGYYSYYLDVWGKGTTVTVSS VL: ELTQSPSSLSASVGDRVTITCRASQGISNRLNWYQQKPGKAPKLLIYDASSLESGVPSRFSGSGSGTDFTLTISSQQPEDFATYYCQQFNSYPLTFGGGTKVEIKR ... 2.61
anti-GII.4 NV Fab D4 (Fab, V domains shown) VH: EVQLVESGPGLVKPSETLSLTCAVSGASIRRANWWGWIRQAPGKGLEWLGSIFINAGTIYNPSLTGRVTVSADTSKNLFSLKLGSVTAADTAVYYCVKSYGDGDDNYNSFYYYMDVWGKGTSVIVSS VL: DVVMTQSPSSLSASVGDRVTITCRASQDIRNNLAWYQHKPGKAPKLLIYYASKLQSGVPLRFSGSGSGTDYTLFISSLQPEDFATYYCQQYKTDTPYSFGQGTKVDIKR ... 0.121
anti-GII.4 NV Fab C9 (Fab, V domains shown) VH: EVQLEESGGVLVKPGGSLRLSCAASGFTFSSHAMHWVRQAPGKGLEWVAIINSGHRADYADSVKDRFTISRDNSKNTLYLQMDSLRPEDTAFYYCAREGDQQDVAD VL: ELTQSPSTLSASVGDRVTITCRASEDIMSYLAWYQQKPAKAPRLLIYYASSLQSGVPSRFSGSGSGTEFTLTISSLQPEDFATYYCQQLHTFPITFGPGTRLDIKRT ... 27.7

Field Kd (entry anti-GII.4 NV Fab B72 (Fab, V domains shown) VH: EVQLEQSGAEVKKPGSSVKVSCKISGGTFSRHPISWVRQAPGQGLLWMGAIILRAGTTKYEQRFQGRITITADESTGTAYMELHSLTSEDTGLYFCATDRMGTFDELLFDSWGQGTLVTVSS VL: ELQMTQSPASLSASVGDRVTITCRASQGIRNNLGWYQQKPGKPPKLLIYAASTLQSGVPSRFSGSGSGTGFTLTISSLQPEDFATYYCLQDYDFPLTFGGGTKVEIKR ) reads 0.351
